Taken from patent US7524853B2.

# Measurement target: 17β-hydroxysteroid dehydrogenase type 3 (17β-HSD type 3) (Homo sapiens, UniProt P37058)
# Construct: expressed in transfected cells; host or cells: MCF-7
# Sequence (P37058 whole entry): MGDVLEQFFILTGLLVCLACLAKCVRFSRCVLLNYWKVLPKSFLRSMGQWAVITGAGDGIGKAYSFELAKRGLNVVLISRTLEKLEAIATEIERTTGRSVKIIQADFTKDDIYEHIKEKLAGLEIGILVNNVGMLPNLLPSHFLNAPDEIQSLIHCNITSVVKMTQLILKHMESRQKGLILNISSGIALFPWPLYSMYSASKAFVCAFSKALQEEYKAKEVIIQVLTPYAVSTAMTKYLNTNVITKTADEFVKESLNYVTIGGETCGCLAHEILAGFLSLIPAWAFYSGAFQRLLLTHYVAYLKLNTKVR
# Test summary: Inhibition of 17β-HSD type 3 in MCF-7 cells stably expressing the isoenzyme (tritium labeled androstenedione conversion, HPLC)
# Type: cell-based
# Assay setup: 1 μM test compound; MCF-7 cells expressing 17β-HSD type 3; 2 nM tritium labeled androstenedione
Measured endpoint: % Inhibition HSD3 1 μM (%)
Give just the numeric value; % need not be written.

Compound | Measurement target | % Inhibition HSD3 1 μM (%)
O=c1c2c(nc(Cc3ccccc3)n1CCc1cccs1)sc1c(O)cccc12 [No. 641] | 17β-hydroxysteroid dehydrogenase type 3 (17β-HSD type 3) (Homo sapiens, UniProt P37058) | 13.2
O=c1c2c(nc(-c3ccc(F)cc3F)n1CCc1ccccc1)sc1c(O)cccc12 [No. 630] | 17β-hydroxysteroid dehydrogenase type 3 (17β-HSD type 3) (Homo sapiens, UniProt P37058) | 10.9
O=c1c2c(nc(CCc3ccccc3)n1CCc1cccs1)sc1c(O)cccc12 [No. 639] | 17β-hydroxysteroid dehydrogenase type 3 (17β-HSD type 3) (Homo sapiens, UniProt P37058) | 33.6

[ask] Report the value of % Inhibition HSD3 1 μM obtained on 17β-hydroxysteroid dehydrogenase type 3 (17β-HSD type 3) (Homo sapiens, UniProt P37058) for CC(C)=Cc1nc2sc3c(O)cccc3c2c(=O)n1Cc1ccccc1 [No. 667] .
[reply] 16.9

[ask] Specify % Inhibition HSD3 1 μM for O=c1c2c(nc(CCC3CCCC3)n1CCc1ccccc1)sc1c(O)cccc12 [No. 627] , system 17β-hydroxysteroid dehydrogenase type 3 (17β-HSD type 3) (Homo sapiens, UniProt P37058).
[reply] 10.7
